Measured values drawn from PubChem BioAssay (NCI) for this set.

# Tested on: NCI-H322M lung
# assay_remarks: NCI-60 one-dose screen, 48 h
# details: 10 µM unless noted
This is part of a sample that, as a whole, favours compounds with a hit. Of some 83,000 tested, about 20% had one in any assay. Activity calls are given as the source filed them. How the source made its calls: active means growth percent below 10; inactive means the rest.
Labels: active, inactive

molecule="CC[C@]1(O)CC2CN(CCc3c([nH]c4ccccc34)C(C(=O)OC)(c3cc4c(cc3OC)N(C=O)[C@H]3[C@@](O)(C(=O)OC)[C@H](OC(C)=O)[C@]5(CC)[C@@H]6C[C@@H]6CN6CC[C@]43[C@@H]65)C2)C1 (stereo partly drawn)" tgt="NCI-H322M lung" group=inactive
molecule=O=c1c(/C=C/c2ccco2)nnc2sc(Nc3ccc(Cl)cc3)nn12 tgt="NCI-H322M lung" group=inactive
molecule=Cc1cccc(Cc2cnc(NC(=O)CCCOc3ccc(Cl)cc3)s2)c1 tgt="NCI-H322M lung" group=inactive
molecule=CCNC(=O)Nc1ncccc1OCc1ccc(F)cc1 tgt="NCI-H322M lung" group=inactive
molecule=NC(N)=NC(N)=NCCCc1ccco1 tgt="NCI-H322M lung" group=inactive
molecule=CCCc1cc(C(N)=S)ccn1 tgt="NCI-H322M lung" group=inactive
molecule="CN1C(=O)N(C)C2(c3ccccc3)N(CC(=O)Nc3ccccc3O)C(=O)NC12c1ccccc1 (stereo not drawn)" tgt="NCI-H322M lung" group=inactive
molecule=CC(=NCc1ccccc1)c1ccc(O)cc1O tgt="NCI-H322M lung" group=inactive
molecule="C=C(CNCCc1ccc(O)cc1)[C@@H]1CC[C@]2(CO)CC[C@]3(C)[C@H](CC[C@@H]4[C@@]5(C)CCC(NCCc6ccc(O)cc6)C(C)(C)[C@@H]5CC[C@]43C)[C@@H]12 (stereo partly drawn)" tgt="NCI-H322M lung" group=active
molecule="CCN1C(=O)N(c2ccccc2)C2NC(=S)N(/N=C/C=C/c3ccccc3)C21 (stereo not drawn)" tgt="NCI-H322M lung" group=inactive
molecule=COc1ccc(/C(C)=C(\c2ccc(OCCN3CCOCC3)cc2)c2ccc(OC(=O)C3CCCCC3)cc2)cc1 tgt="NCI-H322M lung" group=inactive
molecule="CCCCC(NC(=O)CN1C(=O)/C(=C/C(C)=C/c2ccccc2)SC1=S)C(=O)O (stereo not drawn)" tgt="NCI-H322M lung" group=inactive
molecule=COc1c(F)cc(-n2c(C(=O)N3CC(F)C3)cc3cccnc32)cc1F tgt="NCI-H322M lung" group=inactive
molecule=CC(C)(C)c1cc(C(C)(C)c2ccccc2)cc(Cc2cc(C(C)(C)c3ccccc3)cc(C(C)(C)C)c2O)c1O tgt="NCI-H322M lung" group=inactive
molecule="O=C1N=c2ccccc2=C1c1sc(=S)n(C2CC(=O)N(c3ccc(Cl)cc3)C2=O)c1O (stereo not drawn)" tgt="NCI-H322M lung" group=inactive
molecule=NNCCc1ccccc1 tgt="NCI-H322M lung" group=inactive
molecule=O=C1/C(=C/c2ccccc2)CN(C(=O)C(Cl)Cl)C/C1=C\c1ccccc1 tgt="NCI-H322M lung" group=inactive
molecule=CC1=C2[C@@H](CC1)[C@]1(C)O[C@@](C3CC3)(C[C@H]1OC(=O)CO)[C@H]2OC(=O)/C=C/c1ccccc1 tgt="NCI-H322M lung" group=inactive
molecule=COc1cc2c(cc1OCCCOC1=C=C=C(c3ccc4c(c3)c3cc(-c5ccc(OCCCOc6cc7c(cc6OC)C(=O)N6CCC[C@H]6C=N7)cc5)ccc3n4S(=O)(=O)c3ccc(C)cc3)C=C1)N=C[C@@H]1CCCN1C2=O tgt="NCI-H322M lung" group=inactive
molecule=COc1ccc(-c2cc(-c3cccnc3)nc3sc4c(Cl)nnnc4c23)cc1OC tgt="NCI-H322M lung" group=inactive
molecule=COc1ccc(-c2ccc(-c3ccc(C(=N)N)cn3)o2)cc1Cl tgt="NCI-H322M lung" group=inactive
molecule=CC/C=C\C/C=C\C[C@H](O)C/C=C1/C(=O)C=C[C@@H]1C/C=C\CCCC(=O)OC tgt="NCI-H322M lung" group=inactive
molecule=Cc1ccc(S(=O)(=O)OC[C@@]2(C)CC[C@]3(C)CC[C@]4(C)C(=C3C2)C=C[C@@H]2[C@@]3(C)CCCNC(C)(C)[C@@H]3CC[C@]24C)cc1 tgt="NCI-H322M lung" group=inactive
molecule="COc1ccc(C(c2cc(OC)c(OC)c(OC)c2)n2ccnc2)cc1O (stereo not drawn)" tgt="NCI-H322M lung" group=inactive
molecule="CC1(Cc2ccccc2)CC2=C(C(=O)O1)C(c1ccccc1)NC(=O)N2 (stereo not drawn)" tgt="NCI-H322M lung" group=inactive
molecule="N#CC(Cc1cccc2ccccc12)c1cc2ccccc2[nH]1 (stereo not drawn)" tgt="NCI-H322M lung" group=inactive
molecule=Brc1ccc(/C=C(/C2=NCCN2)n2ccc3ccccc32)cc1 tgt="NCI-H322M lung" group=inactive
molecule=COc1ccc(-c2csc(NC(=O)CN3CCN(CCO)CC3)n2)cc1NS(=O)(=O)c1cccc2c(N(C)C)cccc12 tgt="NCI-H322M lung" group=inactive
molecule="C#CCOCC1CN(C)C(=O)O1 (stereo not drawn)" tgt="NCI-H322M lung" group=inactive
molecule=O=C(NNc1ccccc1)c1ccccc1 tgt="NCI-H322M lung" group=inactive
molecule=O=S(=O)(Nc1ccc(F)cc1)c1ccc(-c2cnc(C3CC3)o2)cc1 tgt="NCI-H322M lung" group=inactive
molecule=CC1(C)C(N)=Nc2cc(OCCCCN3Cc4ccccc4C3)c(OCC3CC3)cc21 tgt="NCI-H322M lung" group=inactive
molecule=COc1cc(/C=C2\C(=O)N(CCCCn3c4ccccc4c(=O)c4ccccc43)c3ccccc32)cc(OC)c1O tgt="NCI-H322M lung" group=inactive
molecule=CCCCCCCCCCCCC[C@H](O)C[C@H](O)[C@H](C)N tgt="NCI-H322M lung" group=inactive
molecule=CCN(Cc1ccccc1)c1ccc(/C=C2\COc3ccccc3C2=O)cc1 tgt="NCI-H322M lung" group=inactive
molecule=COc1cc(-c2nn(-c3cccc(NC(=O)CCN4CCN(C)CC4)c3)cc2-c2ccncc2)ccc1Cl tgt="NCI-H322M lung" group=inactive
molecule=Cn1cc(-c2csc(-c3cn(CCOC(N)=O)c4ccccc34)n2)c2cccnc21 tgt="NCI-H322M lung" group=inactive
molecule=Nn1c(-c2ccc(Cl)cc2)nc2c(-c3ccc(Cl)cc3)nc3ccc(Cl)cc3c2c1=O tgt="NCI-H322M lung" group=inactive
